Molecular target: Beta Secretase enzyme (BACE) (Homo sapiens)
Sequence (P56817 46-501): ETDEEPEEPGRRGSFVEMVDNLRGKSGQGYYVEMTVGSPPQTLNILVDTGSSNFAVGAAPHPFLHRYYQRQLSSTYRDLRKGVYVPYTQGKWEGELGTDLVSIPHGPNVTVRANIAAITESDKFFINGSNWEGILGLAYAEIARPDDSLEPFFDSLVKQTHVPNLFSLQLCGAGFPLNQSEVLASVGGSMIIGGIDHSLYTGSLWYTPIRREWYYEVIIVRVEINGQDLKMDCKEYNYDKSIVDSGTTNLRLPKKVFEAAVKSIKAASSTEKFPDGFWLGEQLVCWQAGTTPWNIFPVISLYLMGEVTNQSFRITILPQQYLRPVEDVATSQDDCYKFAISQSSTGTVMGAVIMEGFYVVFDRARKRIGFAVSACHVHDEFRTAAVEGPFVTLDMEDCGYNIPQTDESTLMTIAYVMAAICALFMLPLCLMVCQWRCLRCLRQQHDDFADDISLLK
Assay: In vitro enzymatic BACE FRET (fluorescence resonance energy transfer) assay;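 also: fluorescence read after 1 h with 50 nM quenched peptide substrate spanning the BACE cleavage site, in pH 4.2 acetate buffer containing 10% DMSO and nonionic detergent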
Assay type: biochemical
Settings: Table 1; read-out: BACE1 FRET assay
pIC50: −log10 of the molar value.
Use pIC50 to assign classes; range list: 0 = under 7, 1 = from 7 up to 8, 2 = 8 and over

| compound | assignedClass |
| --- | --- |
| CC(=O)N[C@@H](Cc1ccc(F)c(Br)c1)[C@H](O)CN(C)[C@H]1CC2(CCC2)Oc2ncc(CC(C)(C)C)cc21 | 0 |
| CO[C@H](C)C(=O)N[C@@H](Cc1cc(F)c2c(c1)OCO2)[C@H](O)CN[C@H]1CC2(CCC2)Oc2ncc(CC(C)C)cc21 | 1 |
| COCC(=O)NC(Cc1cc(F)cc(F)c1)C(O)CNC1CC2(CCC2)Oc2ncc(C(O)C(F)(F)F)cc21 (stereo not shown) | 0 |
| CO[C@H](C)C(=O)N[C@@H](Cc1ccc(F)cc1)[C@H](O)CN[C@H]1CC2(CCC2)Oc2ncc(CC(C)C)cc21 | 1 |
| CO[C@H](C)C(=O)N[C@@H](Cc1cccc(F)c1)[C@H](O)CN[C@H]1CC2(CCC2)Oc2ncc(CC(C)(C)C)cc21 | 2 |
| COCC(=O)N[C@@H](Cc1ccc2c(c1)OCO2)[C@H](O)CN[C@H]1CC2(CCC2)Oc2ncc(C[C@@H](C)C(F)(F)F)cc21 | 1 |
| CC(=O)N[C@@H](Cc1ccccc1)[C@H](O)CN[C@H]1CC2(CCC2)Oc2ncc(C[C@@H](C)C(F)(F)F)cc21 | 1 |
| CO[C@H](C)C(=O)N[C@@H](Cc1ccc2c(c1)OCO2)[C@H](O)CN[C@H]1CC2(CCC2)Oc2ncc([C@H](F)C(C)(C)C)cc21 | 1 |
| CO[C@H](C)C(=O)N[C@@H](Cc1ccc2c(c1)OCO2)[C@H](O)CN[C@H]1CC2(CCC2)Oc2ncc(CC(C)C)cc21 | 1 |
| COCC(=O)N[C@@H](Cc1cccc(F)c1)[C@H](O)CN[C@H]1CC2(CCC2)Oc2ncc(C[C@H](C)C(F)(F)F)cc21 | 2 |
| COCC(=O)N[C@@H](Cc1ccc2c(c1)OCO2)[C@H](O)CN[C@H]1CC2(CCC2)Oc2ncc(C[C@H](C)C(F)(F)F)cc21 | 1 |
| CC(=O)N[C@@H](Cc1ccc(F)cc1)[C@H](O)CN[C@@H]1c2cc(CC(C)(C)C)cnc2OC2(CCC2)[C@H]1F | 0 |
| COCC(=O)N[C@@H](Cc1ccc2c(c1)OCO2)[C@H](O)CN[C@H]1CC2(CCC2)Oc2ncc(CC(C)C)cc21 | 1 |
| COCC(=O)N[C@@H](Cc1ccccc1)[C@H](O)CN[C@H]1CC2(CCC2)Oc2ncc([C@H](F)C(C)(C)C)cc21 | 2 |
